The origin of these recorded values is patent US20250320312A1.

# Target or system: Peptide 5: Biotin-…-[Tyr(PC)]-acid
# Sequence (peptide, as listed by the source): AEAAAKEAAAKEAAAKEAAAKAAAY
# Assay info: scFv ELISA
Label scheme for OD450: lower than 1 OD450 is No, 1 OD450 and above is Yes.

Solved cases below.
Binder	Label class
PcOxP_DB01_G01 (scFv, V domains shown, scFv in periplasmic extract) VH: EVQLLESGGGLVQPGGSLRLSCAASGFTGSDFYMEWVRQAPGKGLEWVAASRNKGNSYTTEYADSVKGRFTISRDNSKNTLYLQMNSLRAEDTAVYYCARDYYGSSYWYFDVWGQGTLVTVSS VL: DIQMTQSPSSLSASVGDRVTITCTASESLYGSKHKVHYLAWYQQKPGKAPKLLIYGASNRYSGVPSRFSGSGSGTDFTLTISSLQPEDFATYYCAQFYSYPLTFGGGTKVEIK	Yes
PcOxP_DB02_A09 (scFv, V domains shown, scFv in periplasmic extract) VH: EVQLLESGGGLVQPGGSLRLSCAASGFTFSDTYMEWVRQAPGKGLEWVAASRNKANDYTTEYADSVKGRFTISRDNSKNTLYLQMNSLRAEDTAVYYCARDYYGSSYWYFDVWGQGTLVTVSS VL: DIQMTQSPSSLSASVGDRVTITCTASESLYSSKHKVHYLAWYQQKPGKAPKLLIYGASNRQSGVPSRFSGSGSGTDFTLTISSLQPEDFATYYCAQFYWYPLTFGGGTKVEIK	Yes
PcOxP_DB04_D09 (scFv, V domains shown, scFv in periplasmic extract) VH: EVQLLESGGGLVQPGGSLRLSCAASGFTDSDFYMEWVRQAPGKGLEWVAASRNKANDYTTEYADSVKGRFTISRDNSKNTLYLQMNSLRAEDTAVYYCARDYYGSSYWYFDVWGQGTLVTVSS VL: DIVMTQSPDSLAVSLGERATINCKSSESLYSSKNKVHYLAWYQQKPGQPPKLLIYGASNRYSGVPDRFSGSGSGTDFTLTISSLQAEDVAVYYCAQFYSYPLTFGGGTKVEIK	No
PcOxP_DB03_F03 (scFv, V domains shown, scFv in periplasmic extract) VH: EVQLLESGGGLVQPGGSLRLSCAASGFTFSDQYMEWVRQAPGKGLEWVAASRNKNNDYTTEYADSVKGRFTISRDNSKNTLYLQMNSLRAEDTAVYYCARDYYGASYWYFDVWGQGTLVTVSS VL: DIVMTQSPDSLAVSLGERATINCTASQSVYSSKHKKHYLAWYQQKPGQPPKLLIYGANNRYIGVPDRFSGSGSGTDFTLTISSLQAEDVAVYYCGQFYSYPLTFGGGTKVEIK	Yes
PcOxP_DB04_B07 (scFv, V domains shown, scFv in periplasmic extract) VH: EVQLLESGGGLVQPGGSLRLSCAASGPTFSDFYMEWVRQAPGKGLEWVAASRNKANGYTTEYADSVKGRFTISRDNSKNTLYLQMNSLRAEDTAVYYCARDYYGSSYWYFDVWGQGTLVTVSS VL: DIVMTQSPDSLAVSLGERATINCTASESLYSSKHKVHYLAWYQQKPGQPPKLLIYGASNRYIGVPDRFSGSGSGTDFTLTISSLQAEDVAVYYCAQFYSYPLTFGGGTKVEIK	Yes

Could you tell me if the measured OD450 of PcOxP_DB03_A03 (scFv, V domains shown, scFv in periplasmic extract) VH: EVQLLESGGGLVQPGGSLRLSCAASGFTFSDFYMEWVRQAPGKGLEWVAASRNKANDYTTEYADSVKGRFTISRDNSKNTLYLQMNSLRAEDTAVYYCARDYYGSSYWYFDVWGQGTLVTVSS VL: DIQMTQSPSSLSASVGDRVTITCTASESLYSSKHKVHYLAWYQQKPGKAPKLLIYGASFRYIGVPSRFSGSGSGTDFTLTISSLQPEDFATYYCAQFYSYPLTFGGGTKVEIK reaches 1 OD450 or more?
No

Dear colleague, could you confirm whether PcOxP_DB02_H02 (scFv, V domains shown, scFv in periplasmic extract) VH: EVQLLESGGGLVQPGGSLRLSCAASGPTFSDFYMEWVRQAPGKGLEWVAASRNKANDYTTEYADSVKGRFTISRDNSKNTLYLQMNSLRAEDTAVYYCARDYYGSSYWYFDVWGQGTLVTVSS VL: DIVMTQSPDSLAVSLGERATINCTASESLYSSKHKVHYLAWYQQKPGQPPKLLIYGASNRYIGVPDRFSGSGSGTDFTLTISSLQAEDVAVYYCAQFYDYPLTFGGGTKVEIK has OD450 at or above 1 OD450?
No

In plain terms: is recorded OD450 at least 1 OD450 for PcOxP_DB02_H03 (scFv, V domains shown, scFv in periplasmic extract) VH: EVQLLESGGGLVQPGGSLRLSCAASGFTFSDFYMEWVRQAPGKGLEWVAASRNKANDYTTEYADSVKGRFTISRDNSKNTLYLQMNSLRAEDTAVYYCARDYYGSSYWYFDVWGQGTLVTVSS VL: DIQMTQSPSSLSASVGDRVTITCTASESISSSKHKVHYLAWYQQKPGKAPKLLIYGASNLYSGVPSRFSGSGSGTDFTLTISSLQPEDFATYYCAHFYSYPLTFGGGTKVEIK ?
No
